# System: P388 leukemia ip, CD2F1 mice, survival T/C
# assay_procedure: NCI In Vivo Anticancer Drug Screen. Data for tumor model P388 Leukemia (intraperitoneal) in CD2F1 (CDF1) mice
# conditions: endpoint: median survival time; dose: 6.25 mg/kg/injection; schedule: Q01DX009 (ip); vehicle: saline; higher = longer survival
Inconclusive results and toxic doses are left out.
reported_metric: T/C

Give the reported value of T/C for this record: COc1cc(C(=O)O)cc(C(=O)O)c1 99 % of control

Give the reported value of T/C for this record: COC(=O)C(CC(=O)c1cc2c(cc1Br)OCO2)(Cc1cc(OC)c(OC)c(OC)c1I)C(=O)OC 98 % of control

Give the reported value of T/C for this record: O=C1Nc2ccccc2SC1c1ccccc1Cl (centres undefined) 96 % of control

Give the reported value of T/C for this record: C[N+]1(C)CCOC(O)(c2ccccc2)C1 (centres undefined) 104 % of control

---

# System: P388 leukemia ip, CD2F1 mice, survival T/C
# assay_procedure: NCI In Vivo Anticancer Drug Screen. Data for tumor model P388 Leukemia (intraperitoneal) in CD2F1 (CDF1) mice
# conditions: endpoint: median survival time; dose: 25.0 mg/kg/injection; schedule: Q01DX009 (ip); vehicle: saline; higher = longer survival
Inconclusive results and toxic doses are left out.
The following compounds are listed with their measured T/C values.

// solved cases for T/C follow
compound	reported_metric	value_measured
COC(=O)C(CC(=O)c1cc2c(cc1Br)OCO2)(Cc1cc(OC)c(OC)c(OC)c1I)C(=O)OC	T/C	98 % of control
O=c1[nH]cc(CS)c(=O)[nH]1	T/C	108 % of control
CCCCCCCCCCCCCCCCS(=O)(=O)c1ccc(S(=O)(=O)N/N=c2/sc3ccccc3n2C)cc1C(=O)O	T/C	94 % of control
O=CC1CO1 (stereo unspecified)	T/C	118 % of control
CC(C)N=C(c1ccccc1)N1CCCCC1	T/C	100 % of control

Give the reported value of T/C for this record: CC([NH-])C(=O)O.O=C(O)CN(CC(=O)O)CC(=O)O.[Co+2] 104 % of control

---

# System: P388 leukemia ip, CD2F1 mice, survival T/C
# assay_procedure: NCI In Vivo Anticancer Drug Screen. Data for tumor model P388 Leukemia (intraperitoneal) in CD2F1 (CDF1) mice
# conditions: endpoint: median survival time; dose: 100.0 mg/kg/injection; schedule: Q04DX002 (ip); vehicle: Klucel (hydroxypropylcellulose) (HPC); higher = longer survival
Toxic doses and inconclusive results are not listed.
reported_metric: T/C

// solved cases for T/C follow
compound	T/C
CC(C)C(Br)C(N)=O (stereo unspecified)	100 % of control
Cn1c(C2(C)C(=O)NC(=O)c3cnccc32)cc2ccccc21 (stereo unspecified)	103 % of control
CCn1c(=O)c2[nH]c(Cl)nc2n(CCCOC)c1=O	101 % of control
Cc1cc(=O)n2c(-c3ccc(Cl)cc3)csc2n1	102 % of control
Cc1ncoc1C(=O)Nc1ccc([N+](=O)[O-])cc1[N+](=O)[O-]	103 % of control

Let us examine a further case.
Give the reported value of T/C for this record: O/N=C/c1c(-c2ccccc2)nc2n1CCS2 101 % of control

---

# Test system: P388 leukemia ip, CD2F1 mice, survival T/C
# assay_procedure: NCI In Vivo Anticancer Drug Screen. Data for tumor model P388 Leukemia (intraperitoneal) in CD2F1 (CDF1) mice
# conditions: endpoint: median survival time; dose: 200.0 mg/kg/injection; schedule: Q01DX005 (ip); vehicle: Klucel (hydroxypropylcellulose) (HPC)
# Experimental: The antitumor activity of compounds was measured in mice bearing transplantable tumors. Survival or tumor size were measured and the results are expressed as the measurement made in the treated group (T) divided by the measurement made in the vehicle treated control group (C). The tumor model used in this assay is P388 Leukemia (intraperitoneal) in CD2F1 (CDF1) mice
Inconclusive results and toxic doses are left out. How the source made its calls: active means survival T/C of 150% or more; inactive means T/C below 125% in these data.
Reply using exactly one outcome from active, inactive

molecule	target_under_test	assigned_label
COc1nc(COC(=O)NC(C)C)c(COC(=O)NC(C)C)n1C	P388 leukemia ip, CD2F1 mice, survival T/C	active
CC(=O)Oc1ccccc1C(=O)OC(C)c1ccccc1 (configuration not stated)	P388 leukemia ip, CD2F1 mice, survival T/C	inactive
COc1ccc(C2OC3=C(Nc4ccc([N+](=O)[O-])cc4N3)C2=O)c(OC)c1 (configuration not stated)	P388 leukemia ip, CD2F1 mice, survival T/C	inactive
O=c1c2ccccc2c(=O)c2c1cc(Cl)c1[nH]c3c([nH]c12)c(Cl)cc1c(=O)c2ccccc2c(=O)c13	P388 leukemia ip, CD2F1 mice, survival T/C	inactive
C=C1C(=O)OC2C1C(OC(=O)/C(C)=C/C)CC1(C)C(O)CCC(=C)C21 (configuration not stated)	P388 leukemia ip, CD2F1 mice, survival T/C	inactive
O=c1[nH]c(=O)c2[nH]c(=O)[nH]c(=O)c2[nH]1	P388 leukemia ip, CD2F1 mice, survival T/C	inactive

Here is another molecule to look at.
Recorded test outcome, item c1ccc(-c2cnnc3c4ccccc4nn23)cc1 inactive
